Tested on: NCI-H187
Assay: Cytotoxicity against human NCI-H187 cells by SRB assay
Type: functional, cell-based
EXPERIMENTAL_ENDPOINT: IC50 (µg/mL)
// note: answer is a bare numeric in µg/mL

Query :: I am curious: what IC50 value has been reported for `COC1=Cc2c(cc(O)c3cc(C)c(OC)cc23)C(C)(C)C1=O` ?
Result :: 0.8

Query :: I am curious: what IC50 value has been reported for `COc1cccc2c1C(=O)c1c(O)c3c(c(O)c1C2=O)C[C@@](O)(C(=O)CO)C[C@@H]3O[C@H]1C[C@H](N)[C@H](O)[C@H](C)O1` ?
Result :: 0.04

Query :: I am curious: what IC50 value has been reported for `Cc1c2ccncc2c(C)c2c1[nH]c1ccccc12` ?
Result :: 0.44

* * *

Test system: NCI-H187
Experiment: Cytotoxicity against human NCI-H187 cells by SRB assay
Type: functional, cell-based
EXPERIMENTAL_ENDPOINT: IC50

Look over these answered cases.
COc1cc2c(cc1C)c(OC)cc1cc(C)c(=O)c(OC)cc12; > 5 µg/mL
COc1cc2c(cc1C)c(OC)cc1cc(C)c(=O)cc(OC)c12; > 5 µg/mL

Kindly consider the entry below.
Query :: I am curious: what IC50 value has been reported for COC1=Cc2c(cc(OC)c3cc(C)c(OC)cc23)C(C)(C)C1=O [TRIGONOSTEMONE] ?
Result :: > 5 µg/mL
